What GI50 was measured for each of the following?
test system: OVCAR-5 ovarian; assay: NCI tumour cell line growth inhibition, 48 h

Query :: Query (molecule): CCOC(=O)c1cc(C(=O)c2cc(OC)c(OC)c(OC)c2)n2c1ccc1ccccc12 ; field requested: GI50
Result :: 0.539 µM

Query :: Thanks! And CN1CCC2(CC1)NC(=O)c1c(c3ccc(Cl)c(Cl)c3n1C)C2C#N (stereo unspecified) ?
Result :: 8.67 µM

Query :: Thanks! And C#CCN(Cc1nc2cc(C(F)(F)F)ccc2nc1-c1ccccc1)c1ccc(C)cc1 ?
Result :: > 21.2 µM

Query :: Thanks! And CC(C)(C)[Si](C)(C)OC1[C@@H](O[Si](C)(C)C(C)(C)C)[C@@H](CNC(=O)NC(=O)CF)O[C@H]1n1cnc2c(NC(=O)Nc3ccccc3)ncnc21 (stereo partly specified) ?
Result :: 15.9 µM

Query :: Thanks! And COc1ccc2c(c1)oc(=O)c1cc(OC)ccc12 ?
Result :: > 100 µM

Query :: Thanks! And CC/C(=C(/c1ccc(O)cc1)c1ccc(OCCN)cc1)c1ccccc1 ?
Result :: 6.26 µM

Query :: Thanks! And Cn1cc(C2=C(c3c4n(c5ccccc35)CCC(CN)C4)C(=O)NC2=O)c2ccccc21 (stereo unspecified) ?
Result :: 2.94 µM

Query :: Thanks! And COc1ccc2c(c1)CC[C@@H]1[C@@H]2CC[C@]2(C)c3c(cc(C(=O)O)c4sccc34)C[C@@H]12 ?
Result :: 26 µM

Query :: Thanks! And Cc1nc(-c2nc(-c3ccc(OC(F)(F)F)cc3)no2)nn1Cc1cccc(N2CCC(S(C)(=O)=O)CC2)c1 ?
Result :: > 65.8 µM

Query :: Thanks! And Cn1nc(C(F)(F)F)cc1-c1c[nH]c(OCc2ccc(Cl)cc2)c(-c2ccc(Cl)c(C(F)(F)F)c2)c1=O ?
Result :: 1.71 µM

Query :: Thanks! And [Cl][Hg][c]1ccc(Cl)s1 ?
Result :: 1.72 µM

---

system: IGROV1 ovarian; test: NCI tumour cell line growth inhibition, 48 h; in the data active = GI50 below about 0.43 µM; inactive = the rest
Where a SMILES comes first, the peptide text is derived from it. Bridges are numbered along the chain shown (N, C = ends). [ ]: non-standard residue; d: D form. The star is where a group is joined. ξ: configuration not given here. ξDab(CH2SO3H) = NC(CCNCS(=O)(=O)O)C(=O)O; Heptanoyl(6-Me) = CC(C)CCCCC(=O)*; Dab = NCC[CH](N)C(=O)O
Returns: one label drawn from active, inactive

Query :: Outcome? CCC(C)C1NC(=O)C(CCNCS(=O)(=O)O)NC(=O)C(NC(=O)C(CCNCS(=O)(=O)O)NC(=O)C(NC(=O)C(CCNCS(=O)(=O)O)NC(=O)CCCCC(C)C)C(C)O)CCNC(=O)C(C(C)O)NC(=O)C(CCNCS(=O)(=O)O)NC(=O)C(CCNCS(=O)(=O)O)NC(=O)C(C(C)CC)NC1=O (stereo not given) ({Heptanoyl(6-Me)}-[ξDab(CH2SO3H)]T[ξDab(CH2SO3H)][Dab][ξDab(CH2SO3H)]II[ξDab(CH2SO3H)][ξDab(CH2SO3H)]T; lactam 4-C; configuration not given here)
Result :: inactive

Query :: Thanks! And CCCCCCCCC/C(=N\NC(=O)c1ccncc1)c1ccc(O)c(O)c1O ?
Result :: active

Query :: Thanks! And CC(C)(C)[Si](C)(C)OC1[C@@H](O[Si](C)(C)C(C)(C)C)[C@@H](CNC(=O)NC(=O)CF)O[C@H]1n1cnc2c(NC(=O)Nc3ccccc3)ncnc21 (stereo not given in full) ?
Result :: inactive

Query :: Thanks! And Clc1ccc(Nc2ccnc(N3CCN(c4ccnc5cc(Cl)ccc45)CC3)n2)cc1 ?
Result :: inactive

Query :: Thanks! And Cc1cc(Nc2ncc3c(n2)N(C)C(=O)N(c2cc(NC(=O)c4cccc(C(F)(F)F)c4)ccc2C)C3)n(C)n1 ?
Result :: active

---

system: OVCAR-5 ovarian; assay: NCI tumour cell line growth inhibition, 48 h
What TGI was measured for each of the following?

Query :: For OVCAR-5 ovarian, provide TGI of N#C[Se]CCN1C(=O)C2C(C1=O)[C@H]1C=C[C@@H]2S1 (stereo not given in full) please.
Result :: 6.4 µM

Query :: Thanks! And COc1cc2c(cc1Cc1cccc(Cl)c1F)c(=O)c(C(=O)O)cn2[C@@H](CO)C(C)C ?
Result :: 15.4 µM

Query :: Thanks! And O=C(CC(C(=O)c1cccs1)c1ccsc1)c1ccccc1 (stereo not given) ?
Result :: > 100 µM

Query :: Thanks! And COc1cc(C2c3cc4c(cc3[C@H](NS(C)(=O)=O)C3COC(=O)[C@H]23)OCO4)cc(OC)c1OC (stereo not given in full) ?
Result :: > 100 µM

Query :: Thanks! And O=C(SC1=NCCN1)c1cccc2ccccc12 ?
Result :: > 100 µM

Query :: Thanks! And C/C=C1\CC2C(=O)CCC2C2c3ccccc3OC12 (stereo not given) ?
Result :: > 100 µM

Query :: Thanks! And CCN1C(=O)N(CC)C2C1NN=c1s/c(=C\c3ccco3)c(=O)n12 (stereo not given) ?
Result :: > 100 µM

Query :: Thanks! And COc1cc2cc(C(=O)Nc3cc4n(n3)-c3ccccc3C4)[nH]c2c(OC)c1OC ?
Result :: 17.8 µM

Query :: Thanks! And CC(C)(C)OC(=O)NC(Cc1ccc(O)cn1)C(=O)O (stereo not given) ?
Result :: > 100 µM

Query :: Thanks! And C[C@]12CC[C@H]3[C@@H](CC=C4C[C@@H](O)CC[C@@]43C)[C@@H]1C/C(=C/c1ccccc1)[C@@H]2O ?
Result :: > 76.5 µM

---

What TGI was measured for each of the following?
test system: MDA-MB-231 breast; experiment: NCI tumour cell line growth inhibition, 48 h
Write the number in µM without appending the unit.

Query :: Query (compound): Cc1c(Cl)nc(Cl)nc1Cl ; field requested: TGI
Result :: 2.99

Query :: Thanks! And c1ccc2cc(NCNc3ccc4ccccc4c3)ccc2c1 ?
Result :: 38.9

Query :: Thanks! And O=C1C=CC(=O)c2c1ccc1c3ccccc3n(-c3ccccc3)c21 ?
Result :: 15.9

---

system: CCRF-CEM leukemia; assay: NCI tumour cell line growth inhibition, 48 h
What TGI was measured for each of the following?

Query :: Query (compound): NC(=O)/C(=N\NC(=O)C[n+]1ccccc1)C1NC(=O)NC1=O (centres undefined) ; field requested: TGI
Result :: > 100 µM

Query :: Thanks! And CCNC(=O)Nc1ccc(Oc2ccnc3ccc4c(ccn4C)c23)cc1 ?
Result :: > 100 µM

Query :: Thanks! And COc1ccc(-c2c3c(n(C4OC(COC(C)=O)C(OC(C)=O)C(OC(C)=O)C4OC(C)=O)c(=S)c2C#N)CCC3)cc1 (centres undefined) ?
Result :: > 100 µM

Query :: Thanks! And O=C(/C(=C/c1ccc([N+](=O)[O-])cc1)SCc1ccc(Cl)cc1)c1ccc(F)cc1 ?
Result :: > 100 µM

Query :: Thanks! And O=C(NCc1cccnc1)C1COc2cc(-c3cc(=O)c4ccccc4o3)ccc2O1 (centres undefined) ?
Result :: > 100 µM

Query :: Thanks! And Cc1cc(Nc2ncc3c(n2)N(C)C(=O)N(c2cc(NC(=O)c4cccc(C(F)(F)F)c4)ccc2C)C3)n(C)n1 ?
Result :: > 46.4 µM

Query :: Thanks! And C=C1CCCC(C)(C)C1CCC1(C)CCC(C(C)C(=O)OC)OO1 (centres undefined) ?
Result :: > 18 µM

Query :: Thanks! And O=c1[nH]nc(Cc2ccccc2)n1CCCl ?
Result :: > 100 µM

Query :: Thanks! And CCOC(=O)c1cc2c3c(c(C(C)=O)c(O)c2[nH]1)N(C(C)=O)CC3 ?
Result :: > 100 µM

Query :: Thanks! And C#C/C=C\CCCCCCCCCCCCCC/C=C\CCCCC#CC(O)C#CCCCC/C=C\CCCCCC/C=C/C(O)C#C (centres undefined) ?
Result :: > 47.5 µM

Query :: Thanks! And [Cl][Hg][c]1ccc(Cl)s1 ?
Result :: 3.99 µM

Query :: Thanks! And Cn1ccc(C(=O)NCCN(CCNC(=O)c2ccn(C)c(=O)c2O)CCNC(=O)c2ccn(C)c(=O)c2O)c(O)c1=O ?
Result :: > 100 µM

Query :: Thanks! And CC1=NN(c2ccc(S(=O)(=O)O)cc2)C(=O)/C1=C/c1ccc(Cl)cc1 ?
Result :: > 100 µM

Query :: Thanks! And COC(=O)C1=C(OC(=O)c2ccccc2)C(C(=O)OC)[C@@]2(O)[C@@H](C(=O)OC)[C@H](C)C[C@@H]1[C@@H]2C(=O)OC (some centres undefined) ?
Result :: > 100 µM

Query :: Thanks! And c1ccc2cc(NCNc3ccc4ccccc4c3)ccc2c1 ?
Result :: 62.6 µM

Query :: Thanks! And COc1ccc2nc3c([N+](=O)[O-])ccc(NCCCN(C)C)c3c(NCCCN(C)C)c2c1 ?
Result :: 2.4 µM

Query :: Thanks! And CN(C)CCCCC(C(=O)CBr)(c1ccccc1)c1ccccc1 ?
Result :: 6.45 µM

Query :: Thanks! And C=CCN1COc2c(cc3c4c(cccc24)C(=O)O3)C1 ?
Result :: 44.8 µM

Query :: Thanks! And CCCCC(C(=O)CCC(=O)Nc1ccc(Cl)c(Cl)c1)C(=O)C(C)C (centres undefined) ?
Result :: > 100 µM

Query :: Thanks! And COc1cc2c(cc1Cc1cccc(Cl)c1F)c(=O)c(C(=O)O)cn2[C@@H](CO)C(C)C ?
Result :: 14.2 µM

Query :: Thanks! And NC1CCCCC1N.O=[Se]([O-])[O-].[Pt+4] (centres undefined) ?
Result :: 97.7 µM

Query :: Thanks! And O=C1[C@@H]2C(c3ccccc3[N+](=O)[O-])=[N+](c3ccccc3)O[C@@H]2C(=O)N1c1ccc(Cc2ccc(N3C(=O)[C@H]4C(c5ccccc5[N+](=O)[O-])=[N+](c5ccccc5)O[C@H]4C3=O)cc2)cc1 ?
Result :: > 100 µM

Query :: Thanks! And CC(C)C(=O)CC(c1ccc(Cl)cc1)N1N=C(C(C)C)CC1c1ccc(Cl)cc1 (centres undefined) ?
Result :: > 69.8 µM

Query :: Thanks! And COc1ccc2c(O)c(/C=C3\N=Nc4ccccc43)oc2c1C[C@@H]1CCNC[C@H]1F ?
Result :: 6.1 µM

Query :: Thanks! And COc1cc(C(=O)N2CCN(c3ccccc3)CC2)c2ccccc2n1 ?
Result :: > 100 µM

Query :: Thanks! And Cc1nc(-c2nc(-c3ccc(OC(F)(F)F)cc3)no2)nn1Cc1cccc(N2CCC(S(C)(=O)=O)CC2)c1 ?
Result :: > 100 µM

Query :: Thanks! And [N-]=[N+]=Nc1c(Cl)c(Cl)nc2ccccc12 ?
Result :: > 100 µM

Query :: Thanks! And CC(=O)O[C@@H]1C(=O)N(c2ccccc2)[C@@H]1c1cc2ccccc2c2ccccc12 ?
Result :: > 100 µM

Query :: Thanks! And CCCN(CCC)C(=S)N/N=C/c1ccccn1 ?
Result :: 0.255 µM

Query :: Thanks! And O=C1C=CC(=O)c2c1ccc1c3ccccc3n(-c3ccccc3)c21 ?
Result :: 1.94 µM

Query :: Thanks! And CC(=O)Nc1c(I)c(NC(C)=O)c(I)c(C(=O)O)c1I ?
Result :: > 100 µM

Query :: Thanks! And CC(=NNC(=S)Nc1cccc(C)c1)c1cccc(C(C)=NNC(=S)Nc2cccc(C)c2)n1 ?
Result :: > 100 µM

Query :: Thanks! And O=C1/C(=C/c2ccco2)N=C2Sc3c(nc[nH]c3=O)N12 ?
Result :: > 100 µM

Query :: Thanks! And NC(=O)c1cccc(N=c2oc3ccc(Br)cc3cc2-c2nc3ccccc3[nH]2)c1 ?
Result :: 17.3 µM
